target: TYK2 (Homo sapiens)
Sequence (P29597 whole entry): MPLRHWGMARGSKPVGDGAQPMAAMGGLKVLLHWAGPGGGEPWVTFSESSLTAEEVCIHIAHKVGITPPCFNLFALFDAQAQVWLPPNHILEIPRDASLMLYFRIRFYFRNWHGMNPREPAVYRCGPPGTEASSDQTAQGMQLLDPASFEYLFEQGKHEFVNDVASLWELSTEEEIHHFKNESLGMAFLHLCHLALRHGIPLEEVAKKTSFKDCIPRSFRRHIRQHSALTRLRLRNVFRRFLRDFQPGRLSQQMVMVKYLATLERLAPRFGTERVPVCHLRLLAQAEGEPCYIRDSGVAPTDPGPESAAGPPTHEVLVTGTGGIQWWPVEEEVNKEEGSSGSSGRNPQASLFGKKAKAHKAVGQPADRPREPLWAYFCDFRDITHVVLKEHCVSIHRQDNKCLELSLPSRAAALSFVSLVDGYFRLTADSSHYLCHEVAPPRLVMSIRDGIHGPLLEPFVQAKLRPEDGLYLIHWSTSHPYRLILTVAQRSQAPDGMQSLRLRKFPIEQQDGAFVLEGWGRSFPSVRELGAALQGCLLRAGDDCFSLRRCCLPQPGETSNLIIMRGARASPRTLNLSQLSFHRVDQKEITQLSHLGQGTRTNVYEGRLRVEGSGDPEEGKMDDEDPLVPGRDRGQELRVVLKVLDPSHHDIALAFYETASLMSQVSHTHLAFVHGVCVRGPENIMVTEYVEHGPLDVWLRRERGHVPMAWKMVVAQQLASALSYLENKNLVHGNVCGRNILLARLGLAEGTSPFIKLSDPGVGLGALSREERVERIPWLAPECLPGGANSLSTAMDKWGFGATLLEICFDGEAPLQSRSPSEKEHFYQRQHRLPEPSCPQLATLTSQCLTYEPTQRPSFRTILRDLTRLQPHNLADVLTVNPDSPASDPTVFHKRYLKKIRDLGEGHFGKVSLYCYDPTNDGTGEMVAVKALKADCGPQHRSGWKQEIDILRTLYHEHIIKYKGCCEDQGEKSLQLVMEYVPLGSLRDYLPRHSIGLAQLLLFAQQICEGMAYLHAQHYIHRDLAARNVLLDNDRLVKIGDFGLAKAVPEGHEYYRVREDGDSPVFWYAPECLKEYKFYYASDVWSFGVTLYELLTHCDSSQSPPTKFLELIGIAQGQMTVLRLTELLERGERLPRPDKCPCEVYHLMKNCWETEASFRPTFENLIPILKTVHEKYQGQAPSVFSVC
pIC50: −log10 of the molar value.
Tag: met if measured pIC50 is not below 9, not met if it is.

In [3]: df
Out[3]:
                             chemical_string      cat
 0  Cc1cc(Nc2nc(N[C@@H]3C[C@H]4CCC[C@@H](C3)N4S(=O)(=O)N3CC(C#N)C3)nc3sccc23)n[nH]1      met
 1  N#CCCN1[C@@H]2CC[C@H]1C[C@H](Nc1nc(Nc3ncc(CCO)s3)cc3ncccc13)C2  not met
 2  Cc1cc(Nc2nc(N[C@@H]3C[C@H]4CCC[C@@H](C3)N4C(=O)c3ccccn3)nc3sccc23)n[nH]1      met
 3  Cc1cc(Nc2nc(N[C@@H]3C[C@H]4CC[C@@H](C3)N4C(=O)C(F)F)nc3ccccc23)n[nH]1  not met
 4  Cc1cc(Nc2nc(N[C@@H]3C[C@H]4CC[C@@H](C3)N4CC(=O)N(C)C)nc3ccsc23)n[nH]1  not met
 5  Cc1cc(Nc2nc(N[C@@H]3C[C@H]4CC[C@@H](C3)N4S(=O)(=O)N3CC(C#N)C3)nc3cc(Cl)ccc23)n[nH]1      met
 6  Cc1cc(Nc2nc(N[C@@H]3C[C@H]4CC[C@@H](C3)N4CCC#N)c3ccccc3n2)n[nH]1  not met
 7  Cc1cc(Nc2nc(N(C)[C@@H]3C[C@H]4CC[C@@H](C3)N4C(=O)CN3CCOCC3)nc3sccc23)n[nH]1  not met
 8  Cc1cc(Nc2nc(N[C@@H]3C[C@H]4CC[C@@H](C3)N4CCC#N)c3cccn3n2)n[nH]1  not met
 9  Cc1cc(Nc2nc(N[C@@H]3C[C@H]4CCC[C@@H](C3)N4C(=O)c3nccn3C)nc3sccc23)n[nH]1      met
10  Cc1cc(Nc2nc(N[C@@H]3C[C@H]4CCC[C@@H](C3)N4C(=O)CN3CCOCC3)nc3ccsc23)n[nH]1  not met
